FYI, the data here is from patent US7098013B2.

# System: α-isomaltosyl-transferring enzyme
# assay method text: Action of the purified C11 enzyme on saccharide substrates (saccharide composition by HPLC)
# Assay type: biochemical, Bacillus globisporus C11
# stated conditions: C11 enzyme 2 units/mM-substrate, 10 mM substrate, 30° C., pH 6.0, 12 hours
property measured: Content of others in the reaction mixture (%)
Report the figure in % without appending any unit label.

{"columns": ["molecule", "observed result"],
 "data": [
  ["OC[C@H]1O[C@H](OC[C@H]2O[C@H](O[C@H]3[C@H](O)[C@@H](O)C(O)O[C@@H]3CO)[C@H](O)[C@@H](O)[C@@H]2O)[C@H](O)[C@@H](O)[C@@H]1O (stereo partly shown)", 11.0]
]}

Please fill in: Content of others in the reaction mixture reported for OC[C@H]1O[C@H](OC[C@H]2O[C@H](O[C@H]3[C@H](O)[C@@H](O)[C@@H](O[C@H]4[C@H](O)[C@@H](O)[C@@H](O[C@H]5[C@H](O)[C@@H](O)[C@@H](O[C@H]6[C@H](O)[C@@H](O)C(O)O[C@@H]6CO)O[C@@H]5CO)O[C@@H]4CO)O[C@@H]3CO)[C@H](O)[C@@H](O)[C@@H]2O)[C@H](O)[C@@H](O)[C@@H]1O (stereo partly shown) = 9.4

Quick note, Content of others in the reaction mixture for OC[C@H]1O[C@H](OC[C@H]2O[C@H](O[C@H]3[C@H](O)[C@@H](O)[C@@H](O[C@H]4[C@H](O)[C@@H](O)[C@@H](O[C@H]5[C@H](O)[C@@H](O)C(O)O[C@@H]5CO)O[C@@H]4CO)O[C@@H]3CO)[C@H](O)[C@@H](O)[C@@H]2O)[C@H](O)[C@@H](O)[C@@H]1O (stereo partly shown) landed at 8.4

Briefly, Content of others in the reaction mixture measured for OC[C@H]1O[C@H](OC[C@H]2O[C@H](O[C@H]3[C@H](O)[C@@H](O)[C@@H](O[C@H]4[C@H](O)[C@@H](O)C(O)O[C@@H]4CO)O[C@@H]3CO)[C@H](O)[C@@H](O)[C@@H]2O)[C@H](O)[C@@H](O)[C@@H]1O (stereo partly shown) : 12.4

* * *

# System: α-isomaltosyl-transferring enzyme
# assay method text: Action of the purified N75 enzyme on saccharide substrates (saccharide composition by HPLC)
# Type: biochemical, Bacillus globisporus N75
# stated conditions: N75 enzyme 2 units/mM-substrate, 10 mM substrate, 30° C., pH 6.0, 12 hours
# Content of Cyclotetrasaccharide in the reaction mixture annotations
Reply with just the number (in %).

Here are 3 compounds together with their reported answers.
{"columns": ["compound", "observed result"],
 "data": [
  ["OC[C@H]1O[C@H](OC[C@H]2O[C@H](O[C@H]3[C@H](O)[C@@H](O)[C@@H](O[C@H]4[C@H](O)[C@@H](O)C(O)O[C@@H]4CO)O[C@@H]3CO)[C@H](O)[C@@H](O)[C@@H]2O)[C@H](O)[C@@H](O)[C@@H]1O (stereo partly shown)", 30.9],
  ["OC[C@H]1O[C@H](OC[C@H]2O[C@H](O[C@H]3[C@H](O)[C@@H](O)C(O)O[C@@H]3CO)[C@H](O)[C@@H](O)[C@@H]2O)[C@H](O)[C@@H](O)[C@@H]1O (stereo partly shown)", 43.2],
  ["OC[C@H]1O[C@H](OC[C@H]2O[C@H](O[C@H]3[C@H](O)[C@@H](O)[C@@H](O[C@H]4[C@H](O)[C@@H](O)[C@@H](O[C@H]5[C@H](O)[C@@H](O)[C@@H](O[C@H]6[C@H](O)[C@@H](O)C(O)O[C@@H]6CO)O[C@@H]5CO)O[C@@H]4CO)O[C@@H]3CO)[C@H](O)[C@@H](O)[C@@H]2O)[C@H](O)[C@@H](O)[C@@H]1O (stereo partly shown)", 18.7]
]}

From here, focus on the item given below.
OC[C@H]1O[C@H](OC[C@H]2O[C@H](O[C@H]3[C@H](O)[C@@H](O)[C@@H](O[C@H]4[C@H](O)[C@@H](O)[C@@H](O[C@H]5[C@H](O)[C@@H](O)C(O)O[C@@H]5CO)O[C@@H]4CO)O[C@@H]3CO)[C@H](O)[C@@H](O)[C@@H]2O)[C@H](O)[C@@H](O)[C@@H]1O (stereo partly shown) has a reported Content of Cyclotetrasaccharide in the reaction mixture of 25.8
